system: NCI-H23; assay: NCI tumour cell line growth inhibition, 48 h
The source made the active and inactive calls. Cut-off read from the data, not from the text of the source: active = GI50 up to about 1.1 µM and inactive = higher.
Select the correct class. Options are active, inactive and nothing else.

Use the examples below as a reference point.
| Compound | Target | Assigned label |
| --- | --- | --- |
| CC(CC(C)[C@H]1CCC2[C@H]3C(CC(=O)[C@@]21C)[C@@]1(C)CCC(O)C[C@H]1C[C@@H]3O)C(=O)O (some centres undefined) | NCI-H23 | inactive |
| COc1cc2[nH]c3c(c2cc1OC)CCN[C@@]31CC[C@@]2(CC3c4c(cc(OC)c(O)c42)CCN3C)C[C@@H]1OC (some centres undefined) | NCI-H23 | inactive |
| COc1ccc(C(OCC2OC3(COC(c4ccccc4)(c4ccc(OC)cc4)c4ccc(OC)cc4)C(Oc4nc(=O)ccn43)C2O)(c2ccccc2)c2ccc(OC)cc2)cc1 (centres undefined) | NCI-H23 | inactive |
| COc1cc(/C=N/n2c(C)n[nH]c2=O)cc(OC)c1OC | NCI-H23 | inactive |
| Cn1ncc2cc3c(Nc4ccc(Cl)cc4)cccc3nc21 | NCI-H23 | inactive |

Problem: Answer briefly: the call reported for CC(C)(C)C(=O)OCC1C(=O)OCC1C(=O)N1Cc2cc3ccccc3nc2C1 (centres undefined) in this assay.
Result: inactive

Problem: Another: CCC1(OC(=O)CN)C(=O)OCc2c1cc1n(c2=O)Cc2cc3ccccc3nc2-1 (centres undefined)
Result: active

Problem: Same again, this time with `O=C1CNNC(CSc2nc3ccc(I)cc3c(=O)n2Cc2ccccc2)=N1`
Result: inactive

Problem: And for COC(=O)c1cc(C)ccc1C1CN=NC12Cc1c(C)cc(C)cc1C2=O (centres undefined) ?
Result: inactive

###

system: OVCAR-8; assay: NCI tumour cell line growth inhibition, 48 h
The source made the active and inactive calls. Cut-off read from the data, not from the text of the source: active = GI50 up to about 1.1 µM and inactive = higher.
Returns: one label drawn from active, inactive

Reference set (4 entries):
| Molecule | Assigned label |
| --- | --- |
| Cc1c(C(=O)C(=O)c2ccccc2)c(C)c(C(=O)C(=O)c2ccccc2)c(C)c1C(=O)C(=O)c1ccccc1 | inactive |
| COC(=O)c1c(C)[nH]c2c1C(=O)C(=O)c1nc(C)c(C)nc1-2 | inactive |
| COc1cc2[nH]c3c(c2cc1OC)CCN[C@@]31CC[C@@]2(CC3c4c(cc(OC)c(O)c42)CCN3C)C[C@@H]1OC (some centres not stated) | inactive |
| CC(C)(C)c1ccc(OC(=O)Nc2ccc(O)c(C(=O)O)c2)cc1 | inactive |

Problem: For O=C(O)C12C=CC(C1)c1ccccc12 (configuration not stated) , which call appears in the assay record?
Result: inactive

Problem: Do the same for CCCCN(CCCC)CC(C(=O)Nc1ccccc1)/C(C)=N\NC(=O)c1ccncc1 (configuration not stated) please
Result: inactive

Problem: Also `CCOC(=O)C#Cc1ccccc1` , if possible.
Result: inactive

Problem: # repeat for O=C1OCC2=C1C(c1ccc3c(c1)OCO3)c1cc3c(cc1O2)OCO3 (configuration not stated)
Result: active

Problem: Try the molecule CC1=NN(C(=O)c2ccccc2O)C(c2ccccc2Cl)C1C(=O)Nc1ccccc1 (configuration not stated)
Result: active

Problem: What do you have for `Cc1ccc(NC(=S)NNC(=O)c2cc(-c3ccccc3)nc3ccccc23)cc1C` ?
Result: inactive

Problem: // query: c1ccc2c(c1)-c1nc3ccccc3cc1C2N1CCOCC1 (configuration not stated)
Result: inactive

Problem: Cool, now `O=c1oc2cc(O)ccc2c(O)c1C(c1ccccc1F)c1c(O)c2ccc(O)cc2oc1=O`
Result: inactive

Problem: Also check COC(=O)c1cc(C)ccc1C1CN=NC12Cc1c(C)cc(C)cc1C2=O (configuration not stated)
Result: inactive

Problem: Same for Cc1cn(C2CC(N/C(=N/C#N)NCC3OC(n4cnc5c(N)ncnc54)CC3O)C(CO)O2)c(=O)[nH]c1=O (configuration not stated)
Result: inactive

Problem: Repeat with COc1cc2c3cc1Oc1c(OC)c(OC)cc4c1C(Cc1ccc(O)c(c1)Oc1ccc(cc1)CC3N(C)CC2)CN(C)C4 (configuration not stated)
Result: inactive

Problem: Follow-up entry: `COCc1nc(N)nc(N2N=C(C)CC2(C)C)n1`
Result: inactive

Problem: Would you mind doing `Cc1nc(SCC(N)=O)c2sc(=S)n(-c3ccccc3)c2n1` as well?
Result: inactive

Problem: Please do the same for CCOC1NC(=O)Oc2cc3ccccc3cc21 (configuration not stated) as well.
Result: inactive

Problem: Please answer likewise for `CCOC(=O)c1sc2c(c1OC(=O)c1cccs1)c(=O)n(-c1ccccc1)c(=S)n2-c1ccccc1`
Result: inactive

Problem: Query CCOC(=O)C(C(=S)SC)c1nn2c(=O)cc(C)nc2s1 (configuration not stated) next
Result: inactive

Problem: Now this one: N#CCC(=O)NC1C2CC3CC(C2)CC1C3 (configuration not stated)
Result: inactive

Problem: Also CCC(=O)N/S(=N/S(=O)(=O)c1ccccc1)C(Cl)(Cl)Cl (configuration not stated) , if possible.
Result: inactive

Problem: Also check `CCOC(=O)c1ncn2c1[nH]c(=O)c1ccccc12`
Result: inactive

Problem: Cool, now `CCOC(=O)c1ccc(NC(=O)O/N=C(/Cl)CCl)cc1`
Result: inactive

Problem: Request: CCCCC1(N=[N+]=[N-])C(=O)c2cccc3c2N(CCC3)C1=O (configuration not stated)
Result: inactive
